System: Hepatitis C virus
Assay info: microbe, parasite or virus in culture
Test conditions: genotype 2a JFH-1
Description: Antiviral activity against Hepatitis C virus genotype 2a JFH

- Structure as smiles: "COC(=O)N[C@H](C(=O)N1CCC[C@H]1c1ncc(-c2ccc(-c3ccc(-c4cnc([C@@H]5CCCN5C(=O)[C@@H](NC(=O)OC)C(C)C)[nH]4)cc3)cc2)[nH]1)C(C)C"
  EC50 [nM]: 0.028
